# T/C listing for each entry below
tested on: L1210 leukemia ip in BDF1 mice, survival T/C; experiment: NCI In Vivo Anticancer Drug Screen. Data for tumor model L1210 Leukemia (intraperitoneal) in B6D2F1 (BDF1) mice; settings: endpoint: mean survival time; dose: 25.0 mg/kg/injection; schedule: Q01DX Z (ip); vehicle: methylcellulose (MC); higher = longer survival
Inconclusive results and toxic doses are left out.

| smiles.code | T/C |
| --- | --- |
| Nc1nc(SCc2ccccc2)cc(C(=O)O)n1 | 92 % of control |
| Cc1cnc(SCc2ccc(Cl)cc2)nc1N(C)C | 90 % of control |
| C1CCC(N=C(NC2CCCCC2)OC2CCCCC2)CC1 | 101 % of control |
| Cc1cccc(Nc2cc(C)nc(N)n2)c1 | 105 % of control |
